meta.source: patent US20260167959A1

Test system: Renilla luciferase RNA
ASSAY_PROCEDURE: Barcoded aptazyme variant library screen: un-cleaved Renilla luciferase RNA by barcode read counts, HEK293-T cells
Assay type: cell-based
CONDITION_DETAILS: un-cleaved Renilla luciferase RNA by barcode read counts; with 1 mM theophylline (ON) over without theophylline (OFF); HEK293-T cells; triplicate
READOUT_LABEL: Fold change in RNA expression between the ON state and the OFF state

MOLECULE	QUANTITATIVE_READOUT
RA443 (nucleic acid, expressed or natural sequence) DNA: GCGCGTCCTGGATTCGCGGAAACGCGTACATCCAGCTGACGAGTCCCAAATAGGACGGAATACCAGCATCGTCTTGATGCCCTTGGAAGTCCGCGAAACGCGC	0.6
RA431 (nucleic acid, expressed or natural sequence) DNA: GCGCGTCCTGGATTCGCGGAAACGCGTACATCCACGGAATACCAGCATCGTCTTGATGCCCTTGGAAGTCCGGCTGACGAGTCCCAAATAGGACGAAACGCGC	0.6
RA434 (nucleic acid, expressed or natural sequence) DNA: GCGCGTCCAGAATACCAGCATCGTCTTGATGCCCTTGGAAGTCTTGGATTCGCGGAAACGCGTACATCCAGCTGACGAGTCCCAAATAGGACGAAACGCGC	0.6
RA355 (nucleic acid, expressed or natural sequence) DNA: GCGCGTCCTGGATTCGCGGAAACGCGTACATCGAGAATACCAGCATCGTCTTGATGCCCTTGGAAGTCTCCAGCTGACGAGTCCCAAATAGGACGAAACGCGC	0.9
RA460 (nucleic acid, expressed or natural sequence) DNA: GCGCGTCCTGGATTCGCAGTGATACCAGCATCGTCTTGATGCCCTTGGCAGCACTGGAAACGCGTACATCCAGCTGACGAGTCCCAAATAGGACGAAACGCGC	0.5
RA302 (nucleic acid, expressed or natural sequence) DNA: GCGCGTCCTGGATTCGCGGAAACGCGTACATCCAGCTGACGAGAATACCAGCATCGTCTTGATGCCCTTGGAAGTCTAGTCCCAAATAGGACGAAACGCGC	1.0
RA363 (nucleic acid, expressed or natural sequence) DNA: GCGCGTCCTGGATTCGCGGAAACGCGTACATCCAGCTGACGAGTCCCACGGAATACCAGCATCGTCTTGATGCCCTTGGAAGTCCGAATAGGACGAAACGCGC	0.8
